Numbers sourced from the nanobody polyreactivity screen of Harvey et al. (2022).

- measurement_protocol: yeast display, Sf9 membrane polyspecificity reagent, FACS + sequencing; frameworks hold sequencing errors
endpoint_label: polyreactivity (PSR sort gate)

• QVQLVESGGGLVQAGGSLRLSCAASGYIFAPYAMGWYRQAPGKERELVAAISSGGSTYYADSVKGRFTISRDNAKNTVYLQKNSQKPEDPAVYYCAKRYIYSYYWGQGTQVTVSS = high polyreactivity
• QVQLVESGGALVQAGGSLRLSCAASGITFLYYAMGWYRQAPGKERELVAAISGGGASTYYADSVKGRFTISRDNAKNTVYLQMNSLKPEDTAVYYCAAGYRDFFRARFGYWGQGTQVTVSS = high polyreactivity

---

- measurement_protocol: yeast display, Sf9 membrane polyspecificity reagent, FACS + sequencing; frameworks hold sequencing errors
endpoint_label: polyreactivity (PSR sort gate)

Here are 5 sequences together with their reported answers.
* QVQLVESGGGLVQAGGSLRLSCAASGSIFRVNDMGWYRQAPGKERELVAAISSNGDDTFYADSVKGRFTISRDNSKNTVYLQMNSLKPEDTAVYYCNAESPTYPDYFFKYTHYDYWGQGTQVTVSS | low polyreactivity
* QVHLVESGGGLVQAGGSLRLSCASSGSIFRWYAMGWYRPAPGKERELVAAISTSGGNTYYADSVKGRFTISRDNAKNTVYLQMNSLKPEDTAVYYCNALWYRSLSYRYDYWGQGTQVTVSS | high polyreactivity
* QVQLVESGGGLVQAGGSLRLSCASSGIIFGGNAMGWYRQAPGKERELVATISNGGSTKYADSVKGRFTISRDNAKNTVYLQMNSLKPEDTAVYYCAAQPRVGSYVRSSRGRYNHWGQGTQVTVSS | high polyreactivity
* QVQLVESGGGLVQAGGCLRLSCAASGSIFGYNAMGWYRHAPGKERELVAAISWRGGSTYYADSVKGRFTISRDNAKNSVYLQMNSLKPEDTAVYYCNTLYPYRHDYAGDYWGQGTQVTVSA | high polyreactivity
* QVQLVESGGGLVQAGGSLRLSSAASGRTFDFYAMGWYRQAPGKERELVAAITGSDTSTYYADSVKGRFTISRDNAKNTVYLQMNSLKPEDTAVYYCAADGQWAYTVDPYVIYYRLDYWGQGTQVTVSS | low polyreactivity

Item QVQLVESGGGLVQAGGSLRLSCAASGITFYGYAMGWYRQAPGKERELVASINSTGSTNYADSVKGRFTISRDNAKNTVYLQMNSLKPDDTAVYYCAARYRDGYRSKRKFGYWGQGTQVTVSS has what recorded polyreactivity (PSR sort gate)?
high polyreactivity

Requested read-out: polyreactivity (PSR sort gate). Entry: QVQLVESGGGLVQAGASLRLSCAASGSIFVLYGMGWYRQAPGKERELVAAISAGITNYADSVKGRFTISRDNAKNTVYLQMNSLKPEDTAVYYCATVDGAYQYTYDFWGQGTQVTVSS
low polyreactivity

Given QVQLVESGGGLVQAGGSLRLSCAASGRIFHPNAMGWYIQAPGKERELDAAISRSGSTYYADSVKGRFTISRDNAKNTVYLQMNSLKPEDTAVYYCATQTWSCFSGTPRIYDYWGQGTQVTVSS , state its recorded polyreactivity (PSR sort gate).
high polyreactivity

Item QVQLVESGGGLVQAVGSLRLSSAASGFIFWYYAMGWYRQAPGKERELVAAISSGGGTNYADSVKGRFTISRDNAKNTVYLQMNSLKPEDYAVYYCAAYGPLTGYDYWGQGTQVTVSS has what recorded polyreactivity (PSR sort gate)?
low polyreactivity

Could you tell me which polyreactivity (PSR sort gate) is on file for QVQLVESGGGLVQAGGSLRLSCAASGSIFTLYVMGWYRQAPGKERELVAAITWSGGSTYYADSVKGRFTISRDNAKNTVYLQMNSLKTEDPAVYYCNADVRWDSQDYYYWGQGTQVTVSS ?
low polyreactivity

Would you mind telling me what polyreactivity (PSR sort gate) value was observed for QVQLVESGGGLVQAGGSLRLSCAASGIIFYYNGMGWYRQAPGKERELVAAISGDGSTNYADSVKGRFTISRDNAKNTVYLQMNSLKPEDTAVYYCNADDIFRPRDDLYDYWGQGTQVTVSS ?
low polyreactivity
